So I've got a bunch of compounds here, and I need their composite z-score values.
Tested on: glycogen synthase kinase-3 (GSK3A per assay name; protocol says GSK3B)
METHOD NOTES: GSK3 binders on small-molecule microarrays, primary screen, biochemical, small-molecule microarray, 635 nm fluorescence, GSK3A (AID 1103); further: the record names both GSK3A and GSK3B
SETUP CONDITIONS: small-molecule microarray binding, fluorescence 635 nm; higher = more signal

[
  {
    "SUBSTANCE SMILES": "COc1ccc(/C=C/C=O)cc1",
    "QUANTITY MEASURED": "composite z-score",
    "RESULT": 0.0929
  }
]

For each listed entry, give its composite z-score.
1. O=C(NC1CC1)[C@@H]1c2ccccc2C(=O)N(Cc2ccccc2Cl)[C@H]1c1ccc(CO)cc1
2. COC(=O)[C@@]1(Cc2ccccc2)[C@H]2c3cc(C(=O)N4CCCC4)n(Cc4ccc(S(C)(=O)=O)cc4)c3C[C@H]2CN1C(=O)c1ccccc1
3. O=C(N1CCCCC1)[C@]1(Cc2ccccc2)N=C(c2ccc(OCCCO)cc2)O[C@@H]1c1ccccc1
4. O=C1O[C@H](c2ccccc2)[C@H](c2ccccc2)N2[C@H]1[C@@H](C(=O)N1CCCCCCC1)[C@]1(C(=O)Nc3ccc(C#CCCO)cc31)[C@H]2c1ccccc1OCCO
5. O=C(CS)NCCCCCCNC(=O)[C@@H]1C[C@@H]2C(=O)N[C@@H](Cc3ccccc3)C(=O)N2[C@@H]1c1cccc(OCCO)c1
6. COC(=O)[C@@]1(Cc2ccc(OC)cc2)[C@H]2c3cc(C(=O)N(C)C)n(Cc4ccccn4)c3C[C@H]2CN1C(=O)c1ccccc1

a:
1.24
1.18
0.669
1.5
1.34
-0.305

---

SUBJECT OF TEST: Neurogenic locus notch homolog protein 3 (Homo sapiens) (UniProt Q9UM47)
Sequence (Q9UM47 whole entry, looked up): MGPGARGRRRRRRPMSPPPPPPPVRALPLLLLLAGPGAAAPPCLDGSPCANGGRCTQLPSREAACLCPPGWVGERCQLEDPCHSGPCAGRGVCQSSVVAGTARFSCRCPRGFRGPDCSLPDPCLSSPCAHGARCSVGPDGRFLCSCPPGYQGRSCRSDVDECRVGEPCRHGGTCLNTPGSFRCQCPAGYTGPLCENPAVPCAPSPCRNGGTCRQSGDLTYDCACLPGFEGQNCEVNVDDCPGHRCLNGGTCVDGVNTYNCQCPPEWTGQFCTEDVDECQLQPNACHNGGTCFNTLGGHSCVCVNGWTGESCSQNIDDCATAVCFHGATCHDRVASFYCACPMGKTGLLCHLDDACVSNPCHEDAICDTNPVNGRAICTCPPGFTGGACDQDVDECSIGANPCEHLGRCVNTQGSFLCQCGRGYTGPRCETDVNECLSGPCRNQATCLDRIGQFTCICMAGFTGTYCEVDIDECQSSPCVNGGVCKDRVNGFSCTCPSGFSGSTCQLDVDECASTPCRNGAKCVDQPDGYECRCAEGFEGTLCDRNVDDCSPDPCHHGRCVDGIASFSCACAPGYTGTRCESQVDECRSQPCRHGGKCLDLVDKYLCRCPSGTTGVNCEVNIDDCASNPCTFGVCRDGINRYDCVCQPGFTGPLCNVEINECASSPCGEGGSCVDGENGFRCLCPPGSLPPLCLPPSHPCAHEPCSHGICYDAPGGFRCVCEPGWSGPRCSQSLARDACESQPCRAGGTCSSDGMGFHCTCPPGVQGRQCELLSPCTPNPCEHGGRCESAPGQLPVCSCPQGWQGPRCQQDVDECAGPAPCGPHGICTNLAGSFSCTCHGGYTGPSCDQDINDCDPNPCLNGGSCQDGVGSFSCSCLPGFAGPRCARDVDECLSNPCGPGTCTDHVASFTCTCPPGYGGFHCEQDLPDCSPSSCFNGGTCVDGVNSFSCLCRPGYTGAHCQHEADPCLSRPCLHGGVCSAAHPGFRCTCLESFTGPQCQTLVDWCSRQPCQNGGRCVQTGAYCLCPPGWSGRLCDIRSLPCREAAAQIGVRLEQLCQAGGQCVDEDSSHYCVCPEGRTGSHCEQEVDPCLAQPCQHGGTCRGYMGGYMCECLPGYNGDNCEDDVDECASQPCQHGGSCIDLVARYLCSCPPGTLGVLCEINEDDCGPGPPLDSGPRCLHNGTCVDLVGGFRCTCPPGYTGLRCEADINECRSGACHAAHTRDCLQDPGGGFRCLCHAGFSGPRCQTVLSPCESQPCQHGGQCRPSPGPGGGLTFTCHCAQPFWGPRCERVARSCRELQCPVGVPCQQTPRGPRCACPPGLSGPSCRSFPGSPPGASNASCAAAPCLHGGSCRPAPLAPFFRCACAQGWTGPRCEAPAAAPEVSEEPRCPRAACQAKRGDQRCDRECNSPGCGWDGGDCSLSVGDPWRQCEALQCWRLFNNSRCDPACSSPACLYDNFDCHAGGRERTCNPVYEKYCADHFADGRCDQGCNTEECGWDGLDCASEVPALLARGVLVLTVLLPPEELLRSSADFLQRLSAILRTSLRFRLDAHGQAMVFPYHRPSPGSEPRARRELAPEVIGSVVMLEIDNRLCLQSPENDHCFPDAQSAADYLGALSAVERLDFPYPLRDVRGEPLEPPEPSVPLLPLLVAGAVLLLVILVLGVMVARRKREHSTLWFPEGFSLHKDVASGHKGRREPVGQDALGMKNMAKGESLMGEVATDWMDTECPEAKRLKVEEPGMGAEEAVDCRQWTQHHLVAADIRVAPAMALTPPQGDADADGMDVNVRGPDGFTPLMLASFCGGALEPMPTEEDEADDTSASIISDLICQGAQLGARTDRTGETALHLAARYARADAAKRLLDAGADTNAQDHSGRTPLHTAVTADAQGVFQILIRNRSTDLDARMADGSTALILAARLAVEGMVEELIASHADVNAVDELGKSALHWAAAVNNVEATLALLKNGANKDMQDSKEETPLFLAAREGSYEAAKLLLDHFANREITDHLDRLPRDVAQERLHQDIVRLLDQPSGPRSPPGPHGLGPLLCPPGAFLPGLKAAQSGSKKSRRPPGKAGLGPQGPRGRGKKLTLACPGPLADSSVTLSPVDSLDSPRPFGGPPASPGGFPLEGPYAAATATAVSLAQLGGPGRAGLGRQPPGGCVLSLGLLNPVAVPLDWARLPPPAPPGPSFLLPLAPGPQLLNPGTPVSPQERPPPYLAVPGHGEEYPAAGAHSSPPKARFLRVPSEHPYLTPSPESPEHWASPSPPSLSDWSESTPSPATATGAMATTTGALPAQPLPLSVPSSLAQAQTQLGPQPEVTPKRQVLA
METHOD NOTES: NOTCH3 binders on small-molecule microarray, primary screen, biochemical, 635/667 nm fluorescence (AID 1096)
SETUP CONDITIONS: NOTCH3 binding, 635 nm fluorescence, higher = more signal
For each of the molecules below, state its composite z-score.
Give bare numbers.

For orientation, consider the following solved cases.
[
  {
    "MOLECULE": "O=C1O[C@H](c2ccccc2)[C@H](c2ccccc2)N2[C@H]1[C@@H](C(=O)N1CCCCCCC1)[C@]1(C(=O)Nc3ccc(C#CCCO)cc31)[C@H]2c1ccccc1OCCO",
    "QUANTITY MEASURED": "composite z-score",
    "RESULT NUMBER": 1.01
  },
  {
    "MOLECULE": "COc1cc(C(O)C2C=CC3C(=O)NC(=O)C3N2Nc2ccccn2)cc(OC)c1OC (configuration not stated)",
    "QUANTITY MEASURED": "composite z-score",
    "RESULT NUMBER": 0.158
  },
  {
    "MOLECULE": "COc1ccc(C(=O)Nc2ccc(CN3C(=O)[C@]4(O[C@H](CCO)[C@@H]([Si](C)(C)c5ccc(OC)cc5)[C@@H]4C)c4ccccc43)cc2)cc1",
    "QUANTITY MEASURED": "composite z-score",
    "RESULT NUMBER": 1.13
  }
]

For every listed record, write down its composite z-score.
1. CC(C)NC(=O)[C@@]1(c2ccc([N+](=O)[O-])cc2)CC(=O)N(C2CCCCC2)[C@@H]1c1ccc(CO)cc1I
2. Cc1ccc(S[C@]2(C(=O)NCCCN(C)C)CC(=O)N(Cc3cc(C(F)(F)F)cc(C(F)(F)F)c3)[C@@H]2c2ccc(CO)cc2I)cc1
3. O=C1C2C=CC(C(O)c3cc(C(F)(F)F)cc(C(F)(F)F)c3)N(n3cnnc3)C2C(=O)N1Cc1ccccc1 (configuration not stated)
4. O=C(c1ccccc1)N1C(=O)[C@@]2(Cc3ccccc31)N=C(c1ccc(OCCCO)cc1)O[C@H]2c1ccccc1

a:
[-0.0996, -0.937, 0.679, 1.09]

---

Tested on: Lefty1
METHOD NOTES: Lefty1 binders on small-molecule microarrays, primary screen, biochemical, small-molecule microarray, 635/667 nm fluorescence (AID 1139)
SETUP CONDITIONS: small-molecule microarray binding, fluorescence 635/667; higher = more signal
QUANTITY MEASURED: composite z-score

Before answering, review these 5 worked examples.
[
  {
    "MOLECULE": "Cc1ccc(S[C@]2(C(=O)NCCCN(C)C)CC(=O)N(Cc3cc(C(F)(F)F)cc(C(F)(F)F)c3)[C@@H]2c2ccc(CO)cc2I)cc1",
    "composite z-score": -0.536
  },
  {
    "MOLECULE": "C=CCN1C(=O)[C@@]2(Cc3ccccc31)N=C(c1ccc(OCCCO)cc1)O[C@H]2c1ccccc1",
    "composite z-score": 0.368
  },
  {
    "MOLECULE": "NC(=O)NCC#Cc1ccc2c(c1)[C@]1(C(=O)N2)[C@H](C(N)=O)[C@H]2C(=O)O[C@H](c3ccccc3)[C@H](c3ccccc3)N2[C@@H]1c1ccc(O)cc1",
    "composite z-score": -1.01
  },
  {
    "MOLECULE": "[N-]=[N+]=NCc1ccccc1C[C@]1(C(=O)N2CCCCC2)N=C(c2ccc(OCCCO)cc2)O[C@H]1c1ccccc1N=[N+]=[N-]",
    "composite z-score": -0.0342
  },
  {
    "MOLECULE": "CC(CO)N1C(=O)[C@@H]2C3C(=O)OCCC/C=C\\[C@H]3OC23C=CCN(C(C)(C)C)C(=O)[C@@H]13 (some centres undefined)",
    "composite z-score": 0.476
  }
]

Lab note: each molecule below needs its composite z-score filled in.
1. C=CC[C@]1(C(=O)NCCCOC)N=C(c2ccc(OCCCO)cc2)O[C@H]1c1ccccc1CN=[N+]=[N-]
2. C=CCNC(=O)[C@H]1[C@@H]2C(=O)O[C@@H](c3ccccc3)[C@@H](c3ccccc3)N2[C@@H](c2ccccc2OCCO)[C@]12C(=O)Nc1ccc(C#CCCO)cc12
3. COc1ccc([C@H]2OC[C@@H]3C[C@@H](Cc4ccccc4)C(=O)N32)cc1
4. [N-]=[N+]=Nc1ccccc1[C@H]1OC(c2ccc(OCCCO)cc2)=N[C@@]1(CCS(=O)(=O)c1ccccc1)C(N)=O
5. NC(=O)N1C(=O)C2C(C1=O)C1C=C(c3ccc(CO)cc3)C2C(c2cccs2)N1Cc1cccc(OC(F)(F)F)c1 (centres undefined)
6. [N-]=[N+]=NCc1ccccc1[C@@H]1OC(c2ccc(OCCCO)cc2)=N[C@]1(Cc1ccccc1)C(=O)NCC(O)CO (some centres undefined)

a:
[-0.0763, -0.376, 1.08, -0.142, 0.444, -1.3]

Respectfully, I request composite z-score for each entry included below.
1. COCCOC(=O)N1C(=O)[C@@]2(c3cc(C#CCC(C(=O)OC)C(=O)OC)ccc31)[C@H](c1ccccc1OCCO)N1[C@H](c3ccccc3)[C@H](c3ccccc3)OC(=O)[C@H]1[C@@H]2C(=O)N1CCN(c2ncccn2)CC1
2. C=C(COC)C(=O)CC[C@@H](OC(C)=O)c1ccc(CO)o1
3. O=C1C2C=CC(C(O)c3cc(C(F)(F)F)cc(C(F)(F)F)c3)N(n3cnnc3)C2C(=O)N1Cc1ccccc1 (centres undefined)

a:
1.17
1.73
-0.264

---

SUBJECT OF TEST: Torsin-1A (Homo sapiens)
METHOD NOTES: small-molecule binders of mutant TOR1A in lysate, primary screen, cell lysate, small-molecule microarray, COS7 lysate, 635/667 nm fluorescence (AID 1150);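 further: score pools 667 nm emission and signal to noise measuring lysate protein binding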
SETUP CONDITIONS: COS7 hTOR1A mutant lysate, 635 nm fluorescence, higher = more signal
Would you kindly list composite z-score for each of these compounds?
Give bare numbers.

Use these answered entries as a reference point.
[
  {
    "COMPOUND": "COc1ccc([Si](C)(C)[C@H]2[C@H](CC(=O)N3Cc4ccccc4C[C@H]3CO)O[C@@]3(C(=O)N(Cc4cccc(N5CCC5=O)c4)c4ccccc43)[C@@H]2C)cc1",
    "composite z-score": 0.838
  },
  {
    "COMPOUND": "C=C(COC)/C(=C/C[C@@H](OC(=O)c1ccncc1)c1ccc(CO)o1)c1cc(C(=O)OC)ccc1OC",
    "composite z-score": 0.756
  },
  {
    "COMPOUND": "C=CCOC(=O)[C@@H]1[C@H]2C(=O)O[C@H](c3ccccc3)[C@H](c3ccccc3)N2[C@H](c2ccc(OCCOC(=O)[C@H]3C[C@H]4C(=O)N5CCC[C@H]5C(=O)N4[C@H]3c3ccc(O)cc3)cc2)[C@@]12C(=O)Nc1ccc(I)cc12",
    "composite z-score": 0.98
  },
  {
    "COMPOUND": "COc1cc2c(cc1OC)CN(C(=O)[C@H]1[C@@H]3C(=O)O[C@@H](c4ccccc4)[C@@H](c4ccccc4)N3[C@@H](c3ccc(O)cc3)[C@]13C(=O)Nc1ccccc13)CC2",
    "composite z-score": 1.36
  },
  {
    "COMPOUND": "COC(=O)[C@@]1(Cc2ccc(F)cc2)[C@H]2c3cc(C(=O)N(C)C)n(Cc4cc(F)c(F)c(F)c4)c3C[C@H]2CN1C(=O)c1ccccc1",
    "composite z-score": 0.193
  },
  {
    "COMPOUND": "O=C(NC1CC1)[C@@H]1c2ccccc2C(=O)N(Cc2ccccc2Cl)[C@H]1c1ccc(CO)cc1",
    "composite z-score": 0.941
  },
  {
    "COMPOUND": "COCCOC(=O)N1C(=O)[C@@]2(c3cc(C#CCC(C(=O)OC)C(=O)OC)ccc31)[C@H](c1ccccc1OCCO)N1[C@H](c3ccccc3)[C@H](c3ccccc3)OC(=O)[C@H]1[C@@H]2C(=O)NC[C@H](O)c1ccccc1",
    "composite z-score": 0.389
  },
  {
    "COMPOUND": "CCOC(=O)C[C@H]1[C@H](OC(=O)c2cc3ccccc3oc2=O)[C@@H](NC(=O)c2ccccc2)c2cc(OCCCO)ccc2N1C(=O)c1ccc2ccccc2n1",
    "composite z-score": 0.611
  },
  {
    "COMPOUND": "CC1CC/C=C\\[C@H]2OC34C=CCN(C(C)(C)C)C(=O)[C@H]3N(C(C)CO)C(=O)[C@@H]4C2C(=O)O1 (stereo partly specified)",
    "composite z-score": -0.441
  },
  {
    "COMPOUND": "CN1C=C(C(=O)OCCS(C)(=O)=O)C(C(=O)OCCS(C)(=O)=O)=CC(c2ccc(CO)cc2)=CC1C1CC1 (stereo unspecified)",
    "composite z-score": 0.5
  }
]

State recorded composite z-score for all listed compounds.
1. C=CCC(OC(C)=O)[C@@H]1[C@@H](N(Cc2ccc(-c3ccccc3)cc2)C(=O)c2cccc3ccccc23)c2cc(OCCCO)ccc2N1C(=O)c1ccc(-c2ccccc2)cc1 (stereo partly specified)
2. C=CCOC(=O)[C@@H]1[C@H]2C(=O)O[C@H](c3ccccc3)[C@H](c3ccccc3)N2[C@H](c2ccc(OCCOC(=O)[C@@H]3C[C@@H]4C(=O)NCC(=O)N4[C@@H]3c3ccc(O)cc3)cc2)[C@@]12C(=O)Nc1ccc(I)cc12
3. C=CCC(OC(C)=O)[C@@H]1[C@@H](N(Cc2ccc(-c3ccccc3)cc2)C(=O)Cc2ccc(OC)cc2)c2cc(OCCCO)ccc2N1C(=O)Cc1ccc2ccccc2c1 (stereo partly specified)

a:
1. 0.499
2. 0.706
3. 0.616

Would you mind listing composite z-score for each of the following compounds?
1. C=CC(=C)[C@H]1Oc2ccccc2S(=O)(=O)N2CCC[C@@H]12
2. CC(C)NC(=O)[C@@H]1c2ccccc2C(=O)N(C2Cc3ccccc3C2)[C@H]1c1ccc(CO)cc1
3. O=C1N[C@@H](Cc2ccccc2)C(=O)N2[C@@H]1C[C@@H](C(=O)O)[C@H]2c1cccc(OCCO)c1
4. O=C1N(Cc2ccccc2)c2ccccc2[C@@H]2OC(c3ccc(OCCCO)cc3)=N[C@]12CCS(=O)(=O)c1ccccc1
5. COc1ccc(CCNC(=O)[C@@H]2c3ccccc3C(=O)N(Cc3ccccc3Cl)[C@H]2c2ccc(CO)cc2)cc1
6. O=C(c1ccccc1)N1Cc2ccccc2C[C@@]2(COC(c3ccc(OCCCO)cc3)=N2)C1=O
7. O=C1C2C=CC(C(O)CCc3ccccc3)N(Nc3ccccc3F)C2C(=O)N1c1ccccc1 (stereo unspecified)
8. COCCOC(=O)N1C(=O)[C@@]2(c3ccccc31)[C@H](c1ccc(O)cc1)N1[C@H](c3ccccc3)[C@H](c3ccccc3)OC(=O)[C@H]1[C@@H]2C(=O)Nc1nc2ccccc2s1

a:
1: -1.06; 2: 0.474; 3: 0.719; 4: 0.726; 5: 0.0327; 6: 0.787; 7: 0.538; 8: 1.23
